Task for the reader: assign each of the following binders its reported Kd.
system: Kv1.3 (Homo sapiens, UniProt P22001)
Sequence (P22001 whole entry): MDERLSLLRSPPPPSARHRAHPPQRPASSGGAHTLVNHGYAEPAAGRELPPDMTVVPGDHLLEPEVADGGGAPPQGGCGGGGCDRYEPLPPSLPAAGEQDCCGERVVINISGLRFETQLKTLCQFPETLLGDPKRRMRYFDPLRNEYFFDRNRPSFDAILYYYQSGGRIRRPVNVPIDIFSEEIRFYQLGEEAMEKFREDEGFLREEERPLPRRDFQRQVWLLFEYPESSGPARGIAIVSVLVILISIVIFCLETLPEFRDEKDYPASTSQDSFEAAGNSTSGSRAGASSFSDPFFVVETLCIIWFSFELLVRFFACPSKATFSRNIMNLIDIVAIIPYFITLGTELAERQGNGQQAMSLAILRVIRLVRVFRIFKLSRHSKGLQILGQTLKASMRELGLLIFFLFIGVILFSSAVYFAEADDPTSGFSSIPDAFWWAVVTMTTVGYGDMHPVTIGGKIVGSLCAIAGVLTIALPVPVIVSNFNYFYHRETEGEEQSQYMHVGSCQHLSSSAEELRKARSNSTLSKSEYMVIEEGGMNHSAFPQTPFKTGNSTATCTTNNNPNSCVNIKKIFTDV
method.summary: whole-cell patch clamp
No end group written: not given here. enterokinase site = enterokinase site: N-terminal 6xHis-tag carrying an enterokinase cleavage site; factor Xa site = factor Xa site: N-terminal 6xHis-tag carrying a factor Xa cleavage site
One number for each entry, in nM.

QKECTGPQHCTNFCRKNKCTHGKCMNRKCKCFNCK [Anuroctoxin (Untag-AnTx)]: 0.72
WCSTCLDLACGASRECYDPCFKAFGRAHGKCMNNKCRCYT [Ts6 (Untag-Ts6)]: 29.1
QKECTGPQHCTNFCRKNKCTHGKCMNRKCKCFNCK (N-terminal 6xHis-tag with enterokinase site) [Anuroctoxin (Tag-AnTx)]: 1.29
{6xHis tag-enterokinase site}-WCSTCLDLACGASRECYDPCFKAFGRAHGKCMNNKCRCYT (disulfide (positions not given here); ends not checked) [Ts6 (Tag-Ts6)]: 887

## Task Data request, read-out Kd, for {6xHis tag-factor Xa site}-AAAISCVGSPECPPKCRAQGCKNGKCMNRKCECYYC (disulfide (positions not given here); ends not checked) [Vm24 (Tag-Vm24)]
## Result 0.0044
